# System: IPOHE (Morningglory, Ivyleaf)
# measurementProtocol: Preemergence herbicidal evaluation
# Type: in vivo, Ipomoea hederacea
# conditionContext: rate 0.0313 kg/ha; rated 4-5 weeks after treatment

| compound | IPOHE preemergence herbicidal rating |
| --- | --- |
| CCOC(=O)CN1C(=O)C(CC(=O)O)S/C1=N/c1cc(-n2c(=O)cc(C(F)(F)F)n(C)c2=O)c(F)cc1Cl (stereo not shown) | 3.5 |
| CCOC(=O)/C=C1/S/C(=N/c2cc(-n3c(=O)cc(C(F)(F)F)n(C)c3=O)c(F)cc2Cl)N(CC(=O)OCC)C1=O | 0.0 |
| CN1C(=O)CS/C1=N/c1cc(-n2c(=O)cc(C(F)(F)F)n(C)c2=O)c(F)cc1Cl | 4.0 |
| CCOC(=O)CN1C(=O)CO/C1=N/c1cc(-n2c(=O)cc(C(F)(F)F)n(C)c2=O)c(F)cc1Cl | 2.0 |

Cited source for all entries: patent US20020137929A1
